Target: PAX6 PD P76R (human, UniProt P26367 4-136, P76R)
Sequence (P26367 4-136 P76R): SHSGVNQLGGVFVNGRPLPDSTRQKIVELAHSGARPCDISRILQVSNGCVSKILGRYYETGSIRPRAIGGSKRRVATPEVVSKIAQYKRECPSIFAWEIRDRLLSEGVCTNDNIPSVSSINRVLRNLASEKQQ
Assay: ITC; ITC (iTC200) at 25 °C in buffer C (composition not given; protein stored in 25 mM Hepes pH 7.5, 150 mM NaCl, 5 mM b-ME); 20 uM protein in cell, 200 uM DNA in syringe, one-site model
Conditions: protein: recombinant; 5' overhang 2 nt on each strand (AA/TT), 24 bp
measurementName: Kd (nM)
Answers are plain numbers, in nM.

// field: Kd; key: P6B (dsDNA) DNA 1: AAGCATTTTCACGCATGAGTGCACAG DNA 2: TTCTGTGCACTCATGCGTGAAAATGC ; value = 740
